Target: fusion protein PRT
Sequence (chain, as listed by the source): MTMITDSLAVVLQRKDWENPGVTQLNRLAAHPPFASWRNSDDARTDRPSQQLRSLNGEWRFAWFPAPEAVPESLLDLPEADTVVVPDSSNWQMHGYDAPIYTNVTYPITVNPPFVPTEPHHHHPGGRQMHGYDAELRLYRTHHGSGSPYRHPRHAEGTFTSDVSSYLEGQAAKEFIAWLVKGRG
reported endpoint: relative cleavage efficiency

// query // relative cleavage efficiency lookup, key: OmpT protease variant OmpT D97M (protein) STETLSFTPDNINADISLGTLSGKTKERVYLAEEGGRKVSQLDWKFNNAAIIKGAINWDLMPQISIGAAGWTTLGSRGGNMVDQDWMDSSNPGTWTMESRHPDTQLNYANEFDLNIKGWLLNEPNYRLGLMAGYQESRYSFTARGGSYIYSSEEGFRDDIGSFPNGERAIGYKQRFKMPYIGLTGSYRYEDFELGGTFKYSGWVESSDNDEHYDPGKRITYRSKVKDQNYYSVAVNAGYYVTPNAKVYVEGAWNRVTNKKGNTSLYDHNNNTSDYSKNGAGIENYNFITTAGLKYTF
// result < 3%
